Test: Portal vein and femoral vein plasma pharmacokinetics after oral EZE
Format: in vivo, rats
Details: Sprague-Dawley, rat, portal vein plasma, po, 10 mg/kg, oral 10 mg/kg EZE, CCl4-induced rats; read-out: AUC0–t in portal vein plasma
ENDPOINT LABEL: AUC(0-t) (ng·h/mL)

A = O=C1[C@H](CC[C@H](O)c2ccc(F)cc2)[C@@H](c2ccc(O)cc2)N1c1ccc(F)cc1 [EZE, reference compound]
B = O=C(O)[C@H]1O[C@@H](Oc2ccc([C@@H]3[C@@H](CC[C@H](O)c4ccc(F)cc4)C(=O)N3c3ccc(F)cc3)cc2)[C@H](O)[C@@H](O)[C@@H]1O [EZE-Ph, ezetimibe phenoxy β-D-glucuronide]
Enquiry: Which entry has a larger number for AUC(0-t), A or B ? API: response body contains the label of the selected item.
Return: B

----------
Molecular target: OATP1B3 (Homo sapiens, UniProt Q9NPD5)
Sequence (Q9NPD5 whole entry): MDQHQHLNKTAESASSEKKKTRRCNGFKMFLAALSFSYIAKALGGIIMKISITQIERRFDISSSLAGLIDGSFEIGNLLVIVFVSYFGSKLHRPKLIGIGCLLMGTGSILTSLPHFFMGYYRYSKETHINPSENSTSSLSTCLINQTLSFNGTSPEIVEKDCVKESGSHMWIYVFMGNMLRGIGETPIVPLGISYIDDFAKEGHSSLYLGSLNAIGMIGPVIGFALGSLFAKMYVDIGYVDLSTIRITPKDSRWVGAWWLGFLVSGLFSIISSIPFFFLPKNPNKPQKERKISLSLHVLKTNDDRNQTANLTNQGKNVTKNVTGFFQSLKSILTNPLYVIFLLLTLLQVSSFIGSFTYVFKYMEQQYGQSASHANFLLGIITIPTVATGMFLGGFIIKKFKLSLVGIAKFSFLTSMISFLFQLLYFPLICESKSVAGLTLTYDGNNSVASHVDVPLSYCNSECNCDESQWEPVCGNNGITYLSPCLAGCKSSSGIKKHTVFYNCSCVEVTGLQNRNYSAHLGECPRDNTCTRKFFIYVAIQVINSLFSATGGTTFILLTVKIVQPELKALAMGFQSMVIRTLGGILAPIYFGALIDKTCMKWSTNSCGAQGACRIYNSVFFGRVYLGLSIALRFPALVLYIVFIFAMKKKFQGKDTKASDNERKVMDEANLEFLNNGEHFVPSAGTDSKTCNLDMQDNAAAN
Experiment: Inhibition of OATP1B3-mediated uptake in OATP1B3-transfected HEK293 cells by bile acids and rifampicin
ENDPOINT LABEL: IC50 (µM)

# COMPOUND, IC50 [µM]
rows = [
    ("C[C@H](CCC(=O)O)[C@H]1CC[C@H]2[C@@H]3[C@@H](O)C[C@@H]4C[C@H](O)CC[C@]4(C)[C@H]3CC[C@]12C [UDCA, ursodeoxycholic acid]", 25.5),
]

A = CC(CCC(=O)NCC(=O)O)C1CCC2C3C(O)CC4CC(O)CCC4(C)C3CCC12C (stereo not drawn) [GCDCA, glycochenodeoxycholic acid]
B = C[C@H](CCC(=O)O)[C@H]1CC[C@H]2[C@@H]3[C@H](O)C[C@@H]4C[C@H](O)CC[C@]4(C)[C@H]3CC[C@]12C [CDCA, chenodeoxycholic acid]
Enquiry: Which entry has a larger number for IC50, A or B ? API: response body contains the label of the selected item.
Return: A
(A: 15.1 µM, B: 8.92 µM)

----------
Assay: Pharmacokinetics after intravenous or oral administration of 10 mg/kg EZE to control and CCl4-induced rats
Type: in vivo
Conditions: Sprague-Dawley, rat, plasma, po, 10 mg/kg, p.o. 10 mg/kg EZE, CCl4-induced rats
ENDPOINT LABEL: Tmax (h)

a = O=C1[C@H](CC[C@H](O)c2ccc(F)cc2)[C@@H](c2ccc(O)cc2)N1c1ccc(F)cc1 [EZE, reference compound]
b = O=C(O)[C@H]1O[C@@H](O[C@@H](CC[C@H]2C(=O)N(c3ccc(F)cc3)[C@@H]2c2ccc(O)cc2)c2ccc(F)cc2)[C@H](O)[C@@H](O)[C@@H]1O [EZE-Hy, ezetimibe hydroxy β-D-glucuronide]
c = O=C(O)[C@H]1O[C@@H](Oc2ccc([C@@H]3[C@@H](CC[C@H](O)c4ccc(F)cc4)C(=O)N3c3ccc(F)cc3)cc2)[C@H](O)[C@@H](O)[C@@H]1O [EZE-Ph, ezetimibe phenoxy β-D-glucuronide]
Enquiry: Rank the 3 compounds: largest Tmax first, smallest last. Put the labels in the requested order and list them out.
Return: b, a, c

----------
Experiment: Pharmacokinetics after intravenous or oral administration of 10 mg/kg EZE to control and CCl4-induced rats
Type: in vivo
Settings: Sprague-Dawley, rat, plasma, po, 10 mg/kg, p.o. 10 mg/kg EZE, control rats
ENDPOINT LABEL: half-life (h)

# COMPOUND, ENDPOINT LABEL, ENDPOINT VALUE
rows = [
    ("O=C1[C@H](CC[C@H](O)c2ccc(F)cc2)[C@@H](c2ccc(O)cc2)N1c1ccc(F)cc1 [EZE, reference compound]", "half-life", 5.56),
    ("O=C(O)[C@H]1O[C@@H](Oc2ccc([C@@H]3[C@@H](CC[C@H](O)c4ccc(F)cc4)C(=O)N3c3ccc(F)cc3)cc2)[C@H](O)[C@@H](O)[C@@H]1O [EZE-Ph, ezetimibe phenoxy β-D-glucuronide]", "half-life", 5.5),
]

----------
Assay: Portal vein and femoral vein plasma pharmacokinetics after oral EZE
Format: in vivo, rats
Conditions: Sprague-Dawley, rat, femoral vein plasma, po, 10 mg/kg, oral 10 mg/kg EZE, CCl4-induced rats; read-out: AUC0–t in femoral vein plasma
ENDPOINT LABEL: AUC(0-t) (ng·h/mL)

I = O=C(O)[C@H]1O[C@@H](Oc2ccc([C@@H]3[C@@H](CC[C@H](O)c4ccc(F)cc4)C(=O)N3c3ccc(F)cc3)cc2)[C@H](O)[C@@H](O)[C@@H]1O [EZE-Ph, ezetimibe phenoxy β-D-glucuronide]
II = O=C1[C@H](CC[C@H](O)c2ccc(F)cc2)[C@@H](c2ccc(O)cc2)N1c1ccc(F)cc1 [EZE, reference compound]
Enquiry: Identify the entry with the smaller AUC(0-t): I or II . API: response body contains the label of the selected item.
Return: II
(II: 191 ng·h/mL, I: 12500 ng·h/mL)

----------
Target: UniProt:Q9NPD5
ENDPOINT LABEL: IC50 (µM)
Field format: number, assumed µM, no unit text.

Enquiry: // Input: C[C@H](CCC(=O)NCCS(=O)(=O)O)[C@H]1CC[C@H]2[C@@H]3[C@H](O)C[C@@H]4C[C@H](O)CC[C@]4(C)[C@H]3CC[C@]12C [TCDCA, taurochenodeoxycholic acid] . Output its IC50 only.
Return: 7.94

----------
Biological target: OATP1B3 (Homo sapiens)
Test: Inhibition of OATP1B3-mediated uptake in OATP1B3-transfected HEK293 cells by bile acids and rifampicin
pIC50: −log10 of the molar value.
ENDPOINT LABEL: pIC50

# STRUCTURE NOTATION, pIC50
rows = [
    ("C[C@H](CCC(=O)O)[C@H]1CC[C@H]2[C@@H]3[C@H](O)C[C@@H]4C[C@H](O)CC[C@]4(C)[C@H]3C[C@H](O)[C@]12C", 3.92),
    ("C[C@H](CCC(=O)NCCS(=O)(=O)O)[C@H]1CC[C@H]2[C@@H]3[C@H](O)C[C@@H]4C[C@H](O)CC[C@]4(C)[C@H]3C[C@H](O)[C@]12C", 4.03),
]

a = C[C@H](CCC(=O)NCCS(=O)(=O)O)[C@H]1CC[C@H]2[C@@H]3[C@@H](O)C[C@@H]4C[C@H](O)CC[C@]4(C)[C@H]3CC[C@]12C
b = C[C@H](CCC(=O)NCC(=O)O)[C@H]1CC[C@H]2[C@@H]3[C@H](O)C[C@@H]4C[C@H](O)CC[C@]4(C)[C@H]3C[C@H](O)[C@]12C
c = C[C@H](CCC(=O)NCC(=O)O)[C@H]1CC[C@H]2[C@@H]3[C@@H](O)C[C@@H]4C[C@H](O)CC[C@]4(C)[C@H]3CC[C@]12C
Enquiry: Arrange the 3 entries by pIC50 so the values rise. Put the labels in the requested order and list them out.
Return: b, c, a
(b: 4.10, c: 4.34, a: 4.59)

----------
Assay: Pharmacokinetics after intravenous or oral administration of 10 mg/kg EZE to control and CCl4-induced rats
Assay type: in vivo
Details: Sprague-Dawley, rat, plasma, iv, 10 mg/kg, i.v. 10 mg/kg EZE, control rats, plasma, 5 min; read-out: Cmax (* plasma concentration at 5 min after intravenous injection)
ENDPOINT LABEL: Cmax at 5 min (ng/mL)
Field format: number, assumed ng/mL, no unit text.

Enquiry: // Input: O=C1[C@H](CC[C@H](O)c2ccc(F)cc2)[C@@H](c2ccc(O)cc2)N1c1ccc(F)cc1 [EZE, reference compound] . Output its Cmax at 5 min only.
Return: 1560

----------
Test: Pharmacokinetics after intravenous or oral administration of 10 mg/kg EZE to control and CCl4-induced rats
Format: in vivo
Details: Sprague-Dawley, rat, plasma, iv, 10 mg/kg, i.v. 10 mg/kg EZE, control rats
ENDPOINT LABEL: half-life (h)

# COMPOUND, half-life, h
measured = [
    ("O=C(O)[C@H]1O[C@@H](Oc2ccc([C@@H]3[C@@H](CC[C@H](O)c4ccc(F)cc4)C(=O)N3c3ccc(F)cc3)cc2)[C@H](O)[C@@H](O)[C@@H]1O [EZE-Ph, ezetimibe phenoxy β-D-glucuronide]", 8.96),
]

1 = O=C1[C@H](CC[C@H](O)c2ccc(F)cc2)[C@@H](c2ccc(O)cc2)N1c1ccc(F)cc1 [EZE, reference compound]
2 = O=C(O)[C@H]1O[C@@H](O[C@@H](CC[C@H]2C(=O)N(c3ccc(F)cc3)[C@@H]2c2ccc(O)cc2)c2ccc(F)cc2)[C@H](O)[C@@H](O)[C@@H]1O [EZE-Hy, ezetimibe hydroxy β-D-glucuronide]
Enquiry: Identify the entry with the smaller half-life: 1 or 2 . API: response body contains the label of the selected item.
Return: 1

----------
Biological target: OATP1B3 (Homo sapiens, UniProt Q9NPD5)
Test: Uptake of EZE-Ph into OATP1B3-transfected HEK293 cells
Type: in vitro ADME
Design: host or cells: HEK293
Conditions: human, OATP1B3-transfected HEK293 cells; OATP1B3 HEK293, uptake time 5 min
ENDPOINT LABEL: Km at 5 min (µM)
Field format: number, assumed µM, no unit text.

Enquiry: // Input: O=C(O)[C@H]1O[C@@H](Oc2ccc([C@@H]3[C@@H](CC[C@H](O)c4ccc(F)cc4)C(=O)N3c3ccc(F)cc3)cc2)[C@H](O)[C@@H](O)[C@@H]1O [EZE-Ph, ezetimibe phenoxy β-D-glucuronide] . Output its Km at 5 min only.
Return: 19.9
